# Test system: Influenza A virus
# ASSAY_REMARKS: Antiviral activity against Influenza virus A/PR/8/34 infected in MDCK cells assessed as reduction in viral titer after 48 hrs by hemagglutinination assay
# Assay type: functional, A/Puerto Rico/8/1934(H1N1)
This listing pairs compounds with measured log10 TCID50.
QUANTITY_MEASURED: log10 TCID50

INSERT INTO results (chemical_structure, quantity_measured, result) VALUES
  ('O=C(NCCCc1ccccc1)c1ccccc1', 'log10 TCID50', 6.8),
  ('COc1ccccc1C(=O)NCCCc1ccccc1', 'log10 TCID50', 5.8),
  ('O=C(NCCc1ccccc1)c1ccccc1O', 'log10 TCID50', 7.1),
  ('Cc1ccccc1C(=O)NCCCc1ccccc1', 'log10 TCID50', 6.3),
  ('O=C(NCCCc1ccccc1)c1ccccc1O', 'log10 TCID50', 5.7),
  ('O=C(NCCCc1ccccc1)c1ccccc1[N+](=O)[O-]', 'log10 TCID50', 6.5),
  ('O=C(NCCCc1ccccc1)c1ccc(O)cc1', 'log10 TCID50', 6.5),
  ('O=C(N/N=C/c1ccc2c(c1)CCC2)c1ccccc1O', 'log10 TCID50', 7.1),
  ('O=C(NCCCc1ccccc1)c1cccc(O)c1', 'log10 TCID50', 6.2);
